# Test system: U2OS
# assay_text: Multiplex assay against U2OS
# Assay type: toxicity, cell-based
# test_context: human, 12 h, 1 µM, compound concentration 1 uM, replicate 2

compound	tested_system	unit_abbrev	Population Fragmented Nuclei (%)
CCc1ccc(OCc2ccccc2C(=O)Nc2ccc3nc(C)cc(N)c3c2)cc1.Cl	U2OS	%	33
Cc1ccc2c(c1)c1c(n2CCc2ccc(C)nc2)CCN(C)C1 [LATREPIRDINE]	U2OS	%	27
CCC1=C[C@@H]2C[N@](C1)Cc1c([nH]c3ccccc13)[C@@](C(=O)OC)(c1cc3c(cc1OC)N(C)[C@H]1[C@@](O)(C(=O)OC)[C@H](OC(C)=O)[C@]4(CC)C=CCN5CC[C@]31[C@@H]54)C2.O=C(O)C(O)C(O)C(=O)O.O=C(O)C(O)C(O)C(=O)O [VINORELBINE TARTRATE]	U2OS	%	22

* * *

# Test system: Fibroblast
# assay_text: Multiplex assay against human fibroblast
# Assay type: toxicity, cell-based
# test_context: 12 h, 1 µM, compound concentration 1 uM, replicate 1
Mark t only for Total Cell Count values smaller than 200; exact matches and larger values are f.

compound	tested_system	qualitative_label
Cc1ccc2c(c1)c1c(n2CCc2ccc(C)nc2)CCN(C)C1 [LATREPIRDINE]	Fibroblast	t
CNC(=O)Nc1ccc2c(c1)[C@@]1(CC2)OC(=O)N(CC(=O)N(Cc2ccc(F)cc2)[C@@H](C)C(F)(F)F)C1=O	Fibroblast	f
COc1ccc(-c2ccc3ncc4c(c3c2)n(-c2ccc(N3CCNCC3)c(C(F)(F)F)c2)c(=O)n4C)cn1.O=C(O)/C=C\C(=O)O	Fibroblast	t
COc1ccccc1CN[C@H]1C2CCN(CC2)[C@H]1C(c1ccccc1)c1ccccc1	Fibroblast	t
COc1cc(Nc2nccc(-c3cnn4nc(OC)ccc34)n2)cc(C(F)(F)F)c1	Fibroblast	t
Cc1c[nH]c2nccc(Oc3c(F)cc(Nc4cc(Cl)nc(N)n4)cc3F)c12	Fibroblast	t
CN1CCN(Cc2ccc(Nc3ncc(Cl)c(Nc4ccccc4S(=O)(=O)N(C)C)n3)cc2)CC1	Fibroblast	t
C=CC(=O)Nc1cccc(Oc2nc(Nc3ccc(N4CCN(C)CC4)cc3OC)ncc2Cl)c1	Fibroblast	f
COc1cc2ncn(-c3cc(OCc4ccccc4C(F)(F)F)c(C(N)=O)s3)c2cc1OC [GW843682X]	Fibroblast	t
C=CC(=O)Nc1ccc2[nH]c(=O)n(C3CCN(Cc4ccc(-c5nc6cc[nH]c(=O)c6cc5-c5ccccc5)cc4)CC3)c2c1	Fibroblast	t
COC(=O)C1=C(C)NC(C)=C(C(=O)OCCCN2CCC(c3ccccc3)(c3ccccc3)CC2)[C@H]1c1cccc([N+](=O)[O-])c1	Fibroblast	t
CCOC(=O)Nc1cc(-c2ccc(C)c(NS(C)(=O)=O)c2)nn2c(C)nnc12	Fibroblast	t
Cc1ccccc1C(c1ccccc1C)N1C2CCC1CC(O)(c1ccccc1)C2 (configuration not stated)	Fibroblast	t
CC(C)CC(=O)Nc1[nH]nc2c1CN(C(=O)C1CCN(C)CC1)C2(C)C	Fibroblast	f
Cc1nc(N2CC[C@H](O)C2)ncc1-c1cc(C(F)(F)F)cc2[nH]ncc12	Fibroblast	t
CC(C)OC(=O)N1CCC(Oc2ncnc3c2cnn3-c2ccc(S(C)(=O)=O)cc2F)CC1	Fibroblast	t
O=C(c1cc2c(cc1F)OC(c1ccc(F)cc1)(c1ccc(Cl)cc1Cl)O2)N1CCOCC1 (configuration not stated)	Fibroblast	t

* * *

The entries below are paired with their reported Population Healthy Nuclei (%).
# Tested on: HEK-293T
# assay_text: Multiplex assay against HEK293T
# Assay type: toxicity, cell-based
# test_context: human, 12 h, 10 µM, compound concentration 10 uM, replicate 2
experimental_readout: Population Healthy Nuclei (%)

compound	experimental_readout	value
CC(C)CC(=O)Nc1[nH]nc2c1CN(C(=O)C1CCN(C)CC1)C2(C)C	Population Healthy Nuclei (%)	89
COc1cc2ncn(-c3cc(OCc4ccccc4C(F)(F)F)c(C(N)=O)s3)c2cc1OC [GW843682X]	Population Healthy Nuclei (%)	50
Cc1ccc2c(c1)c1c(n2CCc2ccc(C)nc2)CCN(C)C1 [LATREPIRDINE]	Population Healthy Nuclei (%)	13
COc1ccc(-c2ccc3ncc4c(c3c2)n(-c2ccc(N3CCNCC3)c(C(F)(F)F)c2)c(=O)n4C)cn1.O=C(O)/C=C\C(=O)O	Population Healthy Nuclei (%)	7
COC(=O)C1=C(C)NC(C)=C(C(=O)OCCCN2CCC(c3ccccc3)(c3ccccc3)CC2)[C@H]1c1cccc([N+](=O)[O-])c1	Population Healthy Nuclei (%)	1
Cl.O=C(O)c1cc(-c2ccc(C3CCNCC3)cc2)c2ccc(-c3ccc(C(F)(F)F)cc3)cc2c1	Population Healthy Nuclei (%)	16
CCc1nn(CCCN2CCN(c3cccc(Cl)c3)CC2)c(=O)n1CCOc1ccccc1.Cl [NEFAZODONE HYDROCHLORIDE]	Population Healthy Nuclei (%)	17
CC(C)(C)NC[C@H](O)COc1nsnc1N1CCOCC1	Population Healthy Nuclei (%)	50

* * *

# Test system: U2OS
# assay_text: Multiplex assay against U2OS
# Type: toxicity, cell-based
# test_context: human, 48 h, 10 µM, compound concentration 10 uM, replicate 1
experimental_readout: Population Apoptotic (%)

compound	value
COc1ccc(-c2ccc3ncc4c(c3c2)n(-c2ccc(N3CCNCC3)c(C(F)(F)F)c2)c(=O)n4C)cn1.O=C(O)/C=C\C(=O)O	97
CC(C)OC(=O)N1CCC(Oc2ncnc3c2cnn3-c2ccc(S(C)(=O)=O)cc2F)CC1	35
CCc1nn(CCCN2CCN(c3cccc(Cl)c3)CC2)c(=O)n1CCOc1ccccc1.Cl [NEFAZODONE HYDROCHLORIDE]	82
CC(C)c1noc(N2CCC(COc3ccc(-c4ccc(S(C)(=O)=O)cc4)nc3)CC2)n1	60
CNC(=O)Nc1ccc(-c2nc(N3CC4CCC(C3)O4)c3cnn(C4CCC5(CC4)OCCO5)c3n2)cc1	64
CC(C)Oc1ccccc1C(=O)Nc1ccccc1C(=O)Nc1cccc(S(=O)(=O)C(F)(F)F)c1	77

* * *

The entries below are paired with their reported Population Pyknosed Nuclei (%).
# Test system: Fibroblast
# assay_text: Multiplex assay against human fibroblast
# Type: toxicity, cell-based
# test_context: 24 h, 1 µM, compound concentration 1 uM, replicate 2
experimental_readout: Population Pyknosed Nuclei (%)

1. CC(C)(C)NC[C@H](O)COc1nsnc1N1CCOCC1 6
2. CC(C)OC(=O)N1CCC(Oc2ncnc3c2cnn3-c2ccc(S(C)(=O)=O)cc2F)CC1 8
3. COC(=O)C1=C(C)NC(C)=C(C(=O)OCCCN2CCC(c3ccccc3)(c3ccccc3)CC2)[C@H]1c1cccc([N+](=O)[O-])c1 27
4. C[C@]12CC[C@@H]3c4ccc(O)cc4CC[C@H]3[C@@H]1CC[C@@H]2O 6

* * *

# Tested on: HEK-293T
# assay_text: Incucyte cell viability with HEK293T; also: filed as whole numbers so only -1 and 0 and 1 occur
# Assay type: toxicity, cell-based
# test_context: human, 24 h, 10 µM, compound concentration 10 uM, replicate number 1, timepoint 24 hours
The entries below are paired with their reported Growth Rate.
experimental_readout: Growth Rate

compound	value
C[C@H](N)COC(=O)[C@@H](CCCCN)NC(=O)Cc1c(-c2ccc3ccccc3c2)[nH]c2c1ccc1ccccc12	1
CNC(=O)Nc1ccc(-c2nc(N3CC4CCC(C3)O4)c3cnn(C4CCC5(CC4)OCCO5)c3n2)cc1	0
CN(C)C(=O)/C(C#N)=C/c1ccc(-c2nc3cnc4c(ccn4C)c3n2C2CCCCC2)o1	0
CCNC(=O)c1cc2c(N3CCOC[C@@H]3C)ccnc2n1C	0
COc1cc2ncnc(Nc3ccc(F)c(Cl)c3)c2cc1OCCCN1CCOCC1 [GEFITINIB]	0
CC(C)(O)c1ccccc1CC[C@@H](SCC1(CC(=O)[O-])CC1)c1cccc(/C=C/c2ccc3ccc(Cl)cc3n2)c1.[Na+] [MONTELUKAST SODIUM]	1
Cc1ccccc1C(=O)Nc1ccc(C(=O)N2CCCC(O)c3cc(Cl)ccc32)c(C)c1 (stereo not drawn) [TOLVAPTAN]	0
CN1CCN(Cc2cc(NC(=O)c3ccc4c(c3)CN(c3ccccc3)CC4)cc(C(F)(F)F)c2)CC1	0

* * *

The entries below are paired with their reported Total Cell Count.
# Tested on: U2OS
# assay_text: Multiplex assay against U2OS
# Type: toxicity, cell-based
# test_context: human, 24 h, 10 µM, compound concentration 10 uM, replicate 2
experimental_readout: Total Cell Count

compound	tested_system	value
O=C(c1cc2c(cc1F)OC(c1ccc(F)cc1)(c1ccc(Cl)cc1Cl)O2)N1CCOCC1 (centres undefined)	U2OS	58
CC(C)Oc1ccccc1C(=O)Nc1ccccc1C(=O)Nc1cccc(S(=O)(=O)C(F)(F)F)c1	U2OS	55
COc1cc2ncn(-c3cc(OCc4ccccc4C(F)(F)F)c(C(N)=O)s3)c2cc1OC [GW843682X]	U2OS	67
CN1CCN(Cc2ccc(Nc3ncc(Cl)c(Nc4ccccc4S(=O)(=O)N(C)C)n3)cc2)CC1 [DUBERMATINIB]	U2OS	87

Data origin, for the record: ChEMBL document CHEMBL4689842
